Test system: Pichia kudriavzevii
Experiment: Antifungal activity against Candida krusei assessed as fungal growth inhibition at 100 ug/ml by micro-dilution method relative to control
Type: functional
Conditions: read-out: GI
Assign fulfilled whenever inhibition of growth at 100 µg/mL does not fall below 20%; assign not fulfilled whenever it does.

Would you please look over these solved cases?
COc1cc(/C=N/NC(=O)[C@@H]2CCC(=O)N2)ccc1O: fulfilled
COc1cc(/C=N/NC(=O)[C@@H]2CCC(=O)N2)cc(OC)c1OC: fulfilled
O=C1CC[C@@H](C(=O)N/N=C/c2ccc(Br)cc2)N1: not fulfilled
O=C1CC[C@@H](C(=O)N/N=C/C2CCCCC2)N1: not fulfilled

For the next question, use this compound.
Does the compound O=C1CC[C@@H](C(=O)N/N=C/c2ccc(Cl)cc2)N1 have recorded inhibition of growth at 100 µg/mL that is 20% or more? fulfilled
